For each record, write down the corresponding apparent Kd (screen).
# Tested On: T1, TNFR1 (Homo sapiens, UniProt P19438)
# T1 chain: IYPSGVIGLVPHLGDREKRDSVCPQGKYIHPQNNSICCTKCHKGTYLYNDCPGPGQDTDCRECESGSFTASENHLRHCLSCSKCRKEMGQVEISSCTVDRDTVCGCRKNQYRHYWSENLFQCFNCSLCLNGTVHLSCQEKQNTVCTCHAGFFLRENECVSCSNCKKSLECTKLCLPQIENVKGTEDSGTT
# Procedure Details: yeast display SC50
Just the number in nM, nothing appended.

Data point: E9G (designed binder) MTLQELLRGEALRRAEAEAFRYALELLAEKFPEQKEYLLDLAEEIESQIRSLSGVDVEDVRKFLDKEWAWVKELLAEHPAELAEVEAARAARLAELRAEVEAKVAA ; apparent Kd (screen) = 1.69

Data point: D56N (designed binder) MTLQELLREEALRRAEAEAFRYALELLAEKFPEQKEYLLDLAEEIESQIRSLSGVNVEDVRKFLDKEWAWVKELLAEHPAELAEVEAARAARLAELRAEVEAKVAA ; apparent Kd (screen) = 0.653

Data point: E33W (designed binder) MTLQELLREEALRRAEAEAFRYALELLAEKFPWQKEYLLDLAEEIESQIRSLSGVDVEDVRKFLDKEWAWVKELLAEHPAELAEVEAARAARLAELRAEVEAKVAA ; apparent Kd (screen) = 0.593
